The origin of these recorded values is patent US20240262919A1.

Target: T1, human IL-18Rβ ECD Fc fusion (118-AP-100, R&D Systems) (human, UniProt O95256 20-356)
T1 construct: Bought protein; also called hIL-18Rβ; recombinant human IL-18Rb; not shown: Fc tag of the bought fusion protein, not described
T1 sequence: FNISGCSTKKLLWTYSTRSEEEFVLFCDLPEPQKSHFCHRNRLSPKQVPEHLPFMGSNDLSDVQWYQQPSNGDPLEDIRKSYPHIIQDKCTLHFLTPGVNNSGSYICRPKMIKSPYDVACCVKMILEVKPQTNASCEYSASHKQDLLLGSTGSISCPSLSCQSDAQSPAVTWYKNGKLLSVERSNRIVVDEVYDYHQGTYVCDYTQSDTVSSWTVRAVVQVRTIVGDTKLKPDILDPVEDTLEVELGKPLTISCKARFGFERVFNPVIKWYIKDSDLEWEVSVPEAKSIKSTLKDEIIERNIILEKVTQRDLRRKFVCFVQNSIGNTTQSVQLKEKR
Assay: ELISA on recombinant human IL-18Rβ, normalised OD 450 nm, Fab with PBS or with saturating IgG 3131 [bottom plot]

- Binder: "3131 AM2-S-G (Fab, V domains shown, Fab) VH: EVQLVESGGGLVQPGGSLRLSCAASGFNLYYSSMHWVRQAPGKGLEWVASIYSSYGYTYYADSVKGRFTISADTSKNTAYLQMNSLRAEDTAVYYCARSSFSHGYGWYGLDYWGQGTLVTVSS VL: DIQMTQSPSSLSASVGDRVTITCRASQSVSSAVAWYQQKPGKAPKLLIYGASSLYSGVPSRFSGSRSGTDFTLTISSLQPEDFATYYCQQYGYHYAGLITFGQGTKVEIK"
  binding result: "binds"
